Assay System: Rabies virus glycoprotein G, strain CVS-11 (Challenge Virus Standard-11, ATCC VR 959) (Rabies virus, strain CVS-11)
Measurement Notes: cell-based or functional assay
Readout: CVS neutralizing antibody titre (RFFIT): IU/nM (IU/nM)
Number in IU/nM, nothing else.

Worked examples follow.
Binder	Measured
213-E6 15GS 213-H7 (VHH) EVQLVESGGGLVQAGASLRLSCAASGSTLSRYGVGWFRQAPGKERELVASVDWSGSRTYYADSVKGRFTISRDNAKNTGYLQMNSLKPDDTAVYYCAADSSVVPGIEKYDDWGLGTQVTVSSGGGGSGGGGSGGGGSEVQLVESGGGLVQAGGSLRLSCAASGRTLSSYRMGWFRQAPGKEREFISTISWNGRSTYYADSVKGRFIFSEDNAKNTVYLQMNSLKPEDTAVYYCAAALIGGYYSDVDAWSYWGPGTQVTVSS	93.7
214-E8 15GS 212-C12 (VHH) EVQLVESGGGSVQAGGSLRLSCAASGGTFNPYVMAWFRQAPGNEREFVARIRWSGGDAYYDDSVKGRFAITRDAAKNTVHLQMNSLKPEDTAVYYCAAATYGYGSYTYGGSYDLWGQGTQVTVSSGGGGSGGGGSGGGGSEVQLVESGGGLVQPGGSLRLSCAASGFTFGSSDMSWVRQAPGKGPEWVSGINSGGGRTLYADSVKGRFTISRDNAKNTLYLQMNSLKSEDTAVYYCATDLYGSSWYTDYWSQGTQVTVSS	8.7
214-E8 15GS 214-E8 (VHH) EVQLVESGGGSVQAGGSLRLSCAASGGTFNPYVMAWFRQAPGNEREFVARIRWSGGDAYYDDSVKGRFAITRDAAKNTVHLQMNSLKPEDTAVYYCAAATYGYGSYTYGGSYDLWGQGTQVTVSSGGGGSGGGGSGGGGSEVQLVESGGGSVQAGGSLRLSCAASGGTFNPYVMAWFRQAPGNEREFVARIRWSGGDAYYDDSVKGRFAITRDAAKNTVHLQMNSLKPEDTAVYYCAAATYGYGSYTYGGSYDLWGQGTQVTVSS	9.78
213-E6 25GS 212-C12 (VHH) EVQLVESGGGLVQAGASLRLSCAASGSTLSRYGVGWFRQAPGKERELVASVDWSGSRTYYADSVKGRFTISRDNAKNTGYLQMNSLKPDDTAVYYCAADSSVVPGIEKYDDWGLGTQVTVSSGGGGSGGGGSGGGGSGGGGSGGGGSEVQLVESGGGLVQPGGSLRLSCAASGFTFGSSDMSWVRQAPGKGPEWVSGINSGGGRTLYADSVKGRFTISRDNAKNTLYLQMNSLKSEDTAVYYCATDLYGSSWYTDYWSQGTQVTVSS	6.7
214-E8 15GS 213-H7 (VHH) EVQLVESGGGSVQAGGSLRLSCAASGGTFNPYVMAWFRQAPGNEREFVARIRWSGGDAYYDDSVKGRFAITRDAAKNTVHLQMNSLKPEDTAVYYCAAATYGYGSYTYGGSYDLWGQGTQVTVSSGGGGSGGGGSGGGGSEVQLVESGGGLVQAGGSLRLSCAASGRTLSSYRMGWFRQAPGKEREFISTISWNGRSTYYADSVKGRFIFSEDNAKNTVYLQMNSLKPEDTAVYYCAAALIGGYYSDVDAWSYWGPGTQVTVSS	230
213-E6 5GS 212-C12 (VHH) EVQLVESGGGLVQAGASLRLSCAASGSTLSRYGVGWFRQAPGKERELVASVDWSGSRTYYADSVKGRFTISRDNAKNTGYLQMNSLKPDDTAVYYCAADSSVVPGIEKYDDWGLGTQVTVSSGGGGSEVQLVESGGGLVQPGGSLRLSCAASGFTFGSSDMSWVRQAPGKGPEWVSGINSGGGRTLYADSVKGRFTISRDNAKNTLYLQMNSLKSEDTAVYYCATDLYGSSWYTDYWSQGTQVTVSS	10

Task item: Given the binder 213-E6 25GS 214-E8 (VHH) EVQLVESGGGLVQAGASLRLSCAASGSTLSRYGVGWFRQAPGKERELVASVDWSGSRTYYADSVKGRFTISRDNAKNTGYLQMNSLKPDDTAVYYCAADSSVVPGIEKYDDWGLGTQVTVSSGGGGSGGGGSGGGGSGGGGSGGGGSEVQLVESGGGSVQAGGSLRLSCAASGGTFNPYVMAWFRQAPGNEREFVARIRWSGGDAYYDDSVKGRFAITRDAAKNTVHLQMNSLKPEDTAVYYCAAATYGYGSYTYGGSYDLWGQGTQVTVSS , what is its reported CVS neutralizing antibody titre (RFFIT): IU/nM?
Reply: 1.84

Task item: Given the binder 212-C12 15GS 212-C12 (VHH) EVQLVESGGGLVQPGGSLRLSCAASGFTFGSSDMSWVRQAPGKGPEWVSGINSGGGRTLYADSVKGRFTISRDNAKNTLYLQMNSLKSEDTAVYYCATDLYGSSWYTDYWSQGTQVTVSSGGGGSGGGGSGGGGSEVQLVESGGGLVQPGGSLRLSCAASGFTFGSSDMSWVRQAPGKGPEWVSGINSGGGRTLYADSVKGRFTISRDNAKNTLYLQMNSLKSEDTAVYYCATDLYGSSWYTDYWSQGTQVTVSS , what is its reported CVS neutralizing antibody titre (RFFIT): IU/nM?
Reply: 8.57

Task item: Given the binder 214-F8 15GS 214-F8 (VHH) EVQLVESGGDLVQAGGSLRLSCVASGSTYSINAMGWYRQAPGKLRELVAAFRTGGSTDYADSVKGRFTISRDTAKNTVYLQMNSLKPEDTAVYYCNAEVIYYPYDYWGQGTQVTVSSGGGGSGGGGSGGGGSEVQLVESGGDLVQAGGSLRLSCVASGSTYSINAMGWYRQAPGKLRELVAAFRTGGSTDYADSVKGRFTISRDTAKNTVYLQMNSLKPEDTAVYYCNAEVIYYPYDYWGQGTQVTVSS , what is its reported CVS neutralizing antibody titre (RFFIT): IU/nM?
Reply: 17.2
